Readings of Pe for the listed compounds
conditions: PAMPA, PBS pH 7.4
Record the value in ×10⁻⁶ cm/s, omitting the unit from your answer.

Ask | May I ask what Pe has been recorded for NS(=O)(=O)c1cc2c(cc1Cl)N=CNS2(=O)=O [chlorothiazide, reference compound] ?
Reply | 0.3

###

target: human AChE (hAChE), recombinant acetylcholinesterase (Homo sapiens); construct: made in house; assay: hAChE inhibition, modified Ellman's method; type: biochemical; conditions: ratio IC50(hBChE)/IC50(hAChE)
Sequence (P22303 32-614): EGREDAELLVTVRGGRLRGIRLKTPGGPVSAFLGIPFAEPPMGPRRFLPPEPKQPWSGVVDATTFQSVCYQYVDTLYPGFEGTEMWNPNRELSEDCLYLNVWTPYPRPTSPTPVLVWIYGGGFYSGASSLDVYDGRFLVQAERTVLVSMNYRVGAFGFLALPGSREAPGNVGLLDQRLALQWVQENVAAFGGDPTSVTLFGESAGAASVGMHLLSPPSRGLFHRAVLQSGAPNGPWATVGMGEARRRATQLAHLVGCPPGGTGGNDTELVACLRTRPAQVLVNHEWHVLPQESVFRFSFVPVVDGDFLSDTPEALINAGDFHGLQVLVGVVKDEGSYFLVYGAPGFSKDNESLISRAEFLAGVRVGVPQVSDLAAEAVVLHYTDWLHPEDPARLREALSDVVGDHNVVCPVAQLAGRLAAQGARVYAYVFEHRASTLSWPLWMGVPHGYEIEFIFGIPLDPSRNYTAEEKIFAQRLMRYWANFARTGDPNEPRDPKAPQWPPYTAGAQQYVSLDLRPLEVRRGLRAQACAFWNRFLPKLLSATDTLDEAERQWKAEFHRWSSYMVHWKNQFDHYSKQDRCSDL
Assign Condition met whenever SI (selectivity index for hAChE) does not fall below 6; assign Condition not met whenever it does.

Ask | Quick check, SI (selectivity index for hAChE) >= 6? COc1ccc2nc3c(c(NCCCCCCCNc4c(NCCCCCCCNc5c6c(nc7ccc(OC)cc57)CCCC6)c(=O)c4=O)c2c1)CCCC3 [Compound 5f]
Reply | Condition met

Ask | Entry O=c1c(NCCCCCCCNc2c3c(nc4ccccc24)CCCC3)c(NCCCCCCCNc2c3c(nc4ccccc24)CCCC3)c1=O [Compound 3f] please
Reply | Condition not met

Ask | Entry O=c1c(NCCCNc2c3c(nc4ccccc24)CCCC3)c(NCCCNc2c3c(nc4ccccc24)CCCC3)c1=O [Compound 3b] please
Reply | Condition met
